Source: paper PMC7529893

- measurement-target: MAGE-A11:PCF11 interaction (GST-MAGE-A11 and FAM-PCF11_4) (Homo sapiens, UniProt P43364)
- Construct: GST-MAGE-A11 MHD (human MAGE-A11 MHD amino acid 218-429); made in house; host or cells: E. coli BL21(DE3)
- Sequence (P43364 218-429): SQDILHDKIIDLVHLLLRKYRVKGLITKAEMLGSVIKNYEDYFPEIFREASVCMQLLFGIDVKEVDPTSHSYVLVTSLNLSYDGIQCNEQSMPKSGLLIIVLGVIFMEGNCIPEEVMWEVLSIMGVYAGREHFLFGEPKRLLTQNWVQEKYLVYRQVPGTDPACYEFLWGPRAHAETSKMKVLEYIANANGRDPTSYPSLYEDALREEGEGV
- test-summary: TR-FRET primary / single point screen at 15 µM
- Assay type: binding
- condition-description: single point TR-FRET screening of quinoline compounds against MAGE-A11:PCF11; 15 µM
recorded-metric: percent inhibition (TR-FRET)
No unit in the answer, please; the number alone is enough.

Use these answered entries as a reference point.
INPUT: For CCCN(CCCNc1c2ccc(Cl)cc2nc2ccc(OC)cc12)Cc1c(F)cccc1C(F)(F)F , what is its reported percent inhibition (TR-FRET)?
OUTPUT: 23.0877

INPUT: For CCCN(CCCNc1ccnc2cc(C(F)(F)F)ccc12)Cc1ccco1 , what is its reported percent inhibition (TR-FRET)?
OUTPUT: 24.1057

INPUT: For CC(CCNCCCNc1ccnc2cc(Cl)ccc12)c1ccccc1 (stereo not drawn) , what is its reported percent inhibition (TR-FRET)?
OUTPUT: 19.0144

INPUT: For CCC(CC)c1ccc2c(NCCCNCc3ccco3)ccnc2c1 , what is its reported percent inhibition (TR-FRET)?
OUTPUT: 24.558

INPUT: For CCCN(CCCNc1ccnc2cc(Cl)ccc12)Cc1nc(C)cs1 , what is its reported percent inhibition (TR-FRET)?
OUTPUT: 3.413

INPUT: For CCCN(CCCNc1ccnc2cc(C(F)(F)F)ccc12)Cc1ccc2ccccc2c1 , what is its reported percent inhibition (TR-FRET)?
OUTPUT: 11.3882

INPUT: For FC(F)(F)c1cc(-c2ccc3c(NCCCNCc4ccco4)ccnc3c2)cc(C(F)(F)F)c1 , what is its reported percent inhibition (TR-FRET)?
OUTPUT: 59.7059

INPUT: For CCCN(CCCNc1ccnc2cc(C(F)(F)F)ccc12)Cc1ccccc1OC(F)(F)F , what is its reported percent inhibition (TR-FRET)?
OUTPUT: 5.934

INPUT: For c1coc(CNCCCNc2ccnc3cc(C4CCCCC4)ccc23)c1 , what is its reported percent inhibition (TR-FRET)?
OUTPUT: 32.9599

INPUT: For CN(C)c1ccc(CN(CCCNc2ccnc3cc(Cl)ccc23)Cc2ccccc2)cc1 , what is its reported percent inhibition (TR-FRET)?
OUTPUT: 14.7648

More entries:
INPUT: For CCCN(CCCNc1ccnc2cc(C(F)(F)F)ccc12)Cc1ccoc1 , what is its reported percent inhibition (TR-FRET)?
OUTPUT: 28.5489

---

- measurement-target: MAGE-A11:PCF11 interaction (GST-MAGE-A11 and FAM-PCF11_4) (Homo sapiens)
- Construct: GST-MAGE-A11 MHD (human MAGE-A11 MHD amino acid 218-429); made in house; host or cells: E. coli BL21(DE3)
- test-summary: TR-FRET primary / single point screen at 15 µM
- Assay type: binding
- condition-description: single point TR-FRET screening of quinoline compounds against MAGE-A11:PCF11; 15 µM
Classification field: enter label 1 for percent inhibition (TR-FRET) values not below 10, label 0 for values below it.

Known results for molecules:
INPUT: Kindly determine if percent inhibition (TR-FRET) recorded for CCCN(CCCNc1ccnc2cc(C(F)(F)F)ccc12)CCCc1ccccc1 is above or exactly 10.
OUTPUT: label 1

INPUT: Kindly determine if percent inhibition (TR-FRET) recorded for CCCN(CCCNc1c2ccc(Cl)cc2nc2ccc(OC)cc12)Cc1ccncc1 is above or exactly 10.
OUTPUT: label 0

INPUT: Kindly determine if percent inhibition (TR-FRET) recorded for CCOC(=O)c1cnc2c(Cl)cccc2c1NCCCN1CCOCC1 is above or exactly 10.
OUTPUT: label 0

INPUT: Kindly determine if percent inhibition (TR-FRET) recorded for Clc1ccc2c(NCCCNCC3CCCCC3)ccnc2c1 is above or exactly 10.
OUTPUT: label 1

INPUT: Kindly determine if percent inhibition (TR-FRET) recorded for CCCN(CCCNc1c2ccc(Cl)cc2nc2ccc(OC)cc12)Cc1cc(OC)ccc1F is above or exactly 10.
OUTPUT: label 0

INPUT: Kindly determine if percent inhibition (TR-FRET) recorded for CCCN(CCCNc1ccnc2cc(Cl)ccc12)Cc1c(Cl)ccc(Cl)c1Cl is above or exactly 10.
OUTPUT: label 1

INPUT: Kindly determine if percent inhibition (TR-FRET) recorded for FC(F)(F)c1ccc2c(NCCCNCc3cc4ccccc4s3)ccnc2c1 is above or exactly 10.
OUTPUT: label 1

INPUT: Kindly determine if percent inhibition (TR-FRET) recorded for CCCN(CCCNc1c2ccc(Cl)cc2nc2ccc(OC)cc12)CC1CCOC1 (stereo not drawn) is above or exactly 10.
OUTPUT: label 0

More entries:
INPUT: Kindly determine if percent inhibition (TR-FRET) recorded for CCCN(CCCNc1c2ccc(Cl)cc2nc2ccc(OC)cc12)Cc1cc(F)ccc1OC is above or exactly 10.
OUTPUT: label 0

INPUT: Kindly determine if percent inhibition (TR-FRET) recorded for CCCN(CCCNc1c2ccc(Cl)cc2nc2ccc(OC)cc12)Cc1cccc(OC(F)(F)F)c1 is above or exactly 10.
OUTPUT: label 1

INPUT: Kindly determine if percent inhibition (TR-FRET) recorded for COc1ccc(CN(CCCNc2ccnc3cc(Cl)ccc23)Cc2ccccc2)cc1 is above or exactly 10.
OUTPUT: label 1

---

- measurement-target: MAGE-A11:PCF11 interaction (GST-MAGE-A11 and FAM-PCF11_4) (Homo sapiens)
- Construct: GST-MAGE-A11 MHD (human MAGE-A11 MHD amino acid 218-429); made in house; host or cells: E. coli BL21(DE3)
- test-summary: TR-FRET primary / single point screen at 15 µM
- Assay type: binding
- condition-description: single point TR-FRET screening of 797 quinoline compounds against MAGE-A11:PCF11
- Procedure: The TR-FRET assay buffer with a formula of 50 mM Tris pH 7.5, 20 mM MgCl2, 0.1 mg/ml BSA and 1 mM DTT was freshly prepared before each experiment. […] After incubation, the fluorescent emission signals at 520 nm and 490 nm channels of individual wells were measured with a PHERAstar FS plate reader (BMG Labtech; Durham, NC, USA) by using a 340 nm excitation filter, 100 µs delay time, and 200 µs integration time. […] The TR-FRET signals for individual wells were measured with a PHERAstar FS plate reader. […]
A collection of compounds and their measured percent inhibition (TR-FRET)
No unit in the answer, please; the number alone is enough.

Use these answered entries as a reference point.
INPUT: For CCN(CC)CCCC(C)Nc1c2ccc(Cl)cc2nc2ccc(OC)cc12 (centres unmarked) , what is its reported percent inhibition (TR-FRET)?
OUTPUT: -265.674

INPUT: For O=C(CN1CCN(C(c2ccccc2)c2ccccc2)CC1)Nc1c2c(nc3ccccc13)CCC2 , what is its reported percent inhibition (TR-FRET)?
OUTPUT: 11.85

INPUT: For CCOc1ccc2ncc(C(=O)c3ccc(OC)cc3)c(N3CCN(C)CC3)c2c1 , what is its reported percent inhibition (TR-FRET)?
OUTPUT: -18.955

More entries:
INPUT: For Clc1ccc2c(NCCCCN(Cc3ccccc3)Cc3ccncc3)ccnc2c1 , what is its reported percent inhibition (TR-FRET)?
OUTPUT: -9.945

INPUT: For CCc1ccc(CN(CCCCNc2ccnc3cc(Cl)ccc23)Cc2ccccc2)cc1 , what is its reported percent inhibition (TR-FRET)?
OUTPUT: 29.9089

INPUT: For Cc1ccc(F)cc1CN(CCCCNc1ccnc2cc(Cl)ccc12)Cc1ccccc1 , what is its reported percent inhibition (TR-FRET)?
OUTPUT: 42.3236

INPUT: For CCN1CCN(c2c(S(=O)(=O)c3ccc(C)cc3)cnc3ccc(C)cc23)CC1 , what is its reported percent inhibition (TR-FRET)?
OUTPUT: 0.2213

INPUT: For CCCN(CCCNc1c2ccc(Cl)cc2nc2ccc(OC)cc12)Cc1ccc[nH]1 , what is its reported percent inhibition (TR-FRET)?
OUTPUT: -271.048
